- System Name: human β3 adrenergic receptor (Homo sapiens, UniProt P13945)
- Construct: expressed in transfected cells; host or cells: CHO (Chinese hamster ovary) cells, stably transfected
- Sequence (P13945 whole entry): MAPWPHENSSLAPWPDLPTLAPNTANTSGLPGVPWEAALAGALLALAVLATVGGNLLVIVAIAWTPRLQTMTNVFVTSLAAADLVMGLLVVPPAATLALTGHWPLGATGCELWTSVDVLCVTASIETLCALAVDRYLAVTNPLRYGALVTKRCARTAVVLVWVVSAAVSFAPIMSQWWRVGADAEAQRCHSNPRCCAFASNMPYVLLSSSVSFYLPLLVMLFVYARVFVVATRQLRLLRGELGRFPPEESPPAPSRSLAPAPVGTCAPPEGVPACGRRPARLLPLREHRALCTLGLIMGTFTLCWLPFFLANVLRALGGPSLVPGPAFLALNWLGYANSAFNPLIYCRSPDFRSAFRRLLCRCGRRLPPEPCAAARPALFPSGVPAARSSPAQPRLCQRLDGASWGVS
- Experimental Details: Beta-3 agonist in vitro functional assay (cAMP production, LANCE, transfected CHO cells)
- Assay type: cell-based
- Conditions Used: Table 3, CHO cells with cloned β3 receptor, ligands titrated 10^-12 M to 10^-5 M, read-out: Human β3 agonist functional activity
pEC50: −log10 of the molar value.
Attribute Measured: pEC50

Recorded pEC50 of CN(CCC1CCCCO1)C(=O)c1ccc(C[C@@H]2CC[C@H]([C@H](O)c3ccccc3)N2)cc1 (some centres unmarked) [Example 119] , please.
6.00 to 7.00

Proceed to COCc1cc(CN(C)C(=O)c2ccc(C[C@@H]3CC[C@H]([C@H](O)c4ccccc4)N3)cc2)n[nH]1 [Example 90]
> 9.00

For CN(Cc1ccncn1)C(=O)c1ccc(C[C@@H]2CC[C@H]([C@H](O)c3ccccc3)N2)cc1 [Example 79] then?
6.00 to 7.00

Another compound to look at: Cc1cccn2cc(CN(C)C(=O)c3ccc(C[C@@H]4CC[C@H]([C@H](O)c5ccccc5)N4)cc3)nc12 [Example 126]
6.00 to 7.00

What about this compound? Cc1cc2nc(CN(C)C(=O)c3ccc(C[C@@H]4CC[C@H]([C@H](O)c5ccccc5)N4)cc3)[nH]c2cc1C [Example 101]
6.00 to 7.00

Another compound to check: CN(CC1CCCO1)C(=O)c1ccc(C[C@@H]2CC[C@H]([C@H](O)c3ccccc3)N2)cc1 (some centres unmarked) [Example 127]
6.00 to 7.00

What about this compound? CN(Cc1cc(-c2ccncc2)on1)C(=O)c1ccc(C[C@@H]2CC[C@H]([C@H](O)c3ccccc3)N2)cc1 [Example 107]
6.00 to 7.00

What about COc1ccccc1CN(C)C(=O)c1ccc(C[C@@H]2CC[C@H]([C@H](O)c3ccccc3)N2)cc1 [Example 65] ?
7.00 to 8.00

Note, next up: CN(Cc1cccnc1)C(=O)c1ccc(C[C@@H]2CC[C@H]([C@H](O)c3ccc(N)nc3)N2)cc1 [Example 59]
> 9.00

Moving on to the next compound: CC(c1cccnc1)N(C)C(=O)c1ccc(C[C@@H]2CC[C@H]([C@H](O)c3ccccc3)N2)cc1 (some centres unmarked) [Example 128]
8.00 to 9.00

Also CC(C1COc2ccccc2O1)N(C)C(=O)c1ccc(C[C@@H]2CC[C@H]([C@H](O)c3ccccc3)N2)cc1 (single isomer, unassigned) [Example 94] , if possible.
7.00 to 8.00

Repeat for the following compound: Cc1cccc(CN(C)C(=O)c2ccc(C[C@@H]3CC[C@H]([C@H](O)c4ccccc4)N3)cc2)n1 [Example 67]
7.00 to 8.00

Also, CN(Cc1ncccc1F)C(=O)c1ccc(C[C@@H]2CC[C@H]([C@H](O)c3ccccc3)N2)cc1 [Example 106] please.
7.00 to 8.00

How about CN(C(=O)c1ccc(CC2CCC(C(O)c3ccccc3)N2)cc1)C(c1ccccn1)C1CC1 (mixture of isomers) [Example 96] ?
6.00 to 7.00

Consider next the compound CN(Cc1ncn(C)n1)C(=O)c1ccc(C[C@@H]2CC[C@H]([C@H](O)c3ccccc3)N2)cc1 [Example 73] in the same way.
6.00 to 7.00

What do you have for CN(C)C(=O)c1ccc(C[C@@H]2CC[C@H]([C@H](O)c3ccccc3)N2)cc1 [Example 69] ?
7.00 to 8.00

Could you do the same for CN(Cc1cccc(Br)n1)C(=O)c1ccc(C[C@@H]2CC[C@H]([C@H](O)c3ccccc3)N2)cc1 [Example 77] , please?
7.00 to 8.00

Try Cc1cccnc1CN(C)C(=O)c1ccc(C[C@@H]2CC[C@H]([C@H](O)c3ccccc3)N2)cc1 [Example 62] next.
7.00 to 8.00

Repeat for the following compound: CN(Cc1cnc2ccccc2n1)C(=O)c1ccc(C[C@@H]2CC[C@H]([C@H](O)c3ccccc3)N2)cc1 [Example 61]
8.00 to 9.00

Record: CN(Cc1cccc2ncccc12)C(=O)c1ccc(C[C@@H]2CC[C@H]([C@H](O)c3ccccc3)N2)cc1 [Example 109]
6.00 to 7.00

// query: CN(Cc1nnn(C)n1)C(=O)c1ccc(C[C@@H]2CC[C@H]([C@H](O)c3ccccc3)N2)cc1 [Example 72]
7.00 to 8.00

And Cc1ccc(OCCN(C)C(=O)c2ccc(C[C@@H]3CC[C@H]([C@H](O)c4ccccc4)N3)cc2)cc1 [Example 120] ?
5.52 to 6.00

How about CN(CCc1cccnc1)C(=O)c1ccc(C[C@@H]2CC[C@H]([C@H](O)c3ccccc3)N2)cc1 [Example 53] ?
7.00 to 8.00

Again, but for CN(Cc1nc2ccccc2n1C)C(=O)c1ccc(C[C@@H]2CC[C@H]([C@H](O)c3ccccc3)N2)cc1 [Example 70]
6.00 to 7.00

Next up: CN(C(=O)c1ccc(C[C@@H]2CC[C@H]([C@H](O)c3ccccc3)N2)cc1)C1CCOC1 (some centres unmarked) [Example 117]
6.00 to 7.00

Param item: CN(Cc1cc(Br)ccn1)C(=O)c1ccc(C[C@@H]2CC[C@H]([C@H](O)c3ccccc3)N2)cc1 [Example 57]
7.00 to 8.00

Request: CN(Cc1ccc(Br)cn1)C(=O)c1ccc(C[C@@H]2CC[C@H]([C@H](O)c3ccccc3)N2)cc1 [Example 78]
7.00 to 8.00

Ok, now COCCN(C)C(=O)c1ccc(C[C@@H]2CC[C@H]([C@H](O)c3ccccc3)N2)cc1 [Example 64]
7.00 to 8.00

How about CN(Cc1ccncc1)C(=O)c1ccc(C[C@@H]2CC[C@H]([C@H](O)c3ccccc3)N2)cc1 [Example 71] ?
6.00 to 7.00

###

Would you kindly list pEC50 for each of these compounds?
- System Name: human β3 adrenergic receptor (Homo sapiens)
- Construct: expressed in transfected cells; host or cells: CHO (Chinese hamster ovary) cells, stably transfected
- Experimental Details: Beta-3 agonist in vitro functional assay (cAMP production, LANCE, transfected CHO cells)
- Assay type: cell-based
- Conditions Used: given as a range, CHO cells with cloned β3 receptor, read-out: human Beta-3 agonist functional activity
pEC50: −log10 of the molar value.

API: value(readout=pEC50, system=human β3 adrenergic receptor (Homo sapiens)) for record O=C(NCc1nc(-c2ccccc2)n[nH]1)c1ccc(C[C@@H]2CC[C@H]([C@H](O)c3ccccc3)N2)cc1 [Example 1]
8.00 to 9.00

Repeat with CN(Cc1ccccc1F)C(=O)c1ccc(C[C@@H]2CC[C@H]([C@H](O)c3ccccc3)N2)cc1 [Example 135]
7.00 to 8.00

// same read-out, input: CC(c1ccccn1)N(C)C(=O)c1ccc(CC2CC[C@H]([C@H](O)c3ccccc3)N2)cc1 (stereo partly shown) [Example 137]
6.00 to 7.00

Let us now turn to CN(Cc1cccc(N)n1)C(=O)c1ccc(C[C@@H]2CC[C@H]([C@H](O)c3ccccc3)N2)cc1 [Example 136]
> 9.00

Another: CN(CCc1ccccn1)C(=O)c1ccc(C[C@@H]2CC[C@H]([C@H](O)c3ccccc3)N2)cc1 [Example 134]
7.00 to 8.00

Param item: CN(Cc1cccnc1)C(=O)c1ccc(C[C@@H]2CC[C@H]([C@H](O)c3ccccc3)N2)cc1 [Example 51]
8.00 to 9.00

Let us now turn to CN(C)C(=O)c1ccc(C[C@@H]2CC[C@H](C(O)c3ccc(N)nc3)N2)cc1 (stereo partly shown) [Example 133]
7.00 to 8.00

###

- System Name: human β3 adrenergic receptor (Homo sapiens)
- Construct: expressed in transfected cells; host or cells: CHO (Chinese hamster ovary) cells, stably transfected
- Experimental Details: Beta-3 agonist in vitro functional assay (cAMP production, LANCE, transfected CHO cells)
- Type: cell-based
- Conditions Used: Table 3, CHO cells with cloned β3 receptor, ligands titrated 10^-12 M to 10^-5 M, read-out: Human β3 agonist functional activity
pEC50: −log10 of the molar value.
Task for the reader: assign each of the following molecules its reported pEC50.

Field request: pEC50 | item: CN(Cc1ccccc1)C(=O)c1ccc(C[C@@H]2CC[C@H]([C@H](O)c3ccccc3)N2)cc1
6.00 to 7.00

Quick one: CN(Cc1ncc[nH]1)C(=O)c1ccc(C[C@@H]2CC[C@H]([C@H](O)c3ccccc3)N2)cc1
7.00 to 8.00

Entry Cc1csc(CCN(C)C(=O)c2ccc(C[C@@H]3CC[C@H]([C@H](O)c4ccccc4)N3)cc2)n1 please
7.00 to 8.00

Try this molecule too: CCN(Cc1cccnn1)C(=O)c1ccc(C[C@@H]2CC[C@H]([C@H](O)c3ccccc3)N2)cc1
6.00 to 7.00

CN(Cc1cccnn1)C(=O)c1ccc(C[C@@H]2CC[C@H]([C@H](O)c3ccccc3)N2)cc1 , same question.
6.00 to 7.00

Another molecule to look at: Cc1nccc(CN(C)C(=O)c2ccc(C[C@@H]3CC[C@H]([C@H](O)c4ccccc4)N3)cc2)n1
7.00 to 8.00

Also, CN(Cc1ccc2nccnc2c1)C(=O)c1ccc(C[C@@H]2CC[C@H]([C@H](O)c3ccccc3)N2)cc1 please.
7.00 to 8.00
